Below: a set of entries, each annotated with reported EC50.
subject_of_test: T1, human ROR1 (full-length, on the cell surface) (human, UniProt Q01973 30-937)
T1 construct: whole, on cells; the tumour cell lines carry their own ROR1; also called Ba/F3-ROR1 cells; Jeko-1
assay_name: flow cytometry, A549 cells
measurement_name: EC50

INSERT INTO measurements (binder, val) VALUES
  ('19F6-Hu35V6 (antibody, human IgG1, kappa, V domains shown, humanized, human IgG1 / kappa) VH: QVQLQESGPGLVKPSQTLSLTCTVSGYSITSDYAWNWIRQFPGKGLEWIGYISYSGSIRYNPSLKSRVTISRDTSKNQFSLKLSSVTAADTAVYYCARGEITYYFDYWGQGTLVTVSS VL: ETTLTQSPAFMSATPGDKVTISCKASTDIDNDMNWYQQKPGKPPKLIISEGNTLRPGIPPRFSSSGYGTDFTFTINNIKSEDAATYYCLQSNDLPLTFGQGTKLEIKR', '0.08 nM'),
  ('3D8-Hu95 (antibody, human IgG1, kappa, V domains shown, humanized, human IgG1 / kappa) VH: EVQLVESGGGLVQPGGSLRLSCAASGFTFSSYAMSWVRQAPEKRLEWVSSISNGGSTYYPDSVKGRFTISRDNSKNTLYLQMNSLRAEDTAVYYCARVNYYGYGDYAMDYWGQGTLVTVSS VL: DIQMTQSPSSLSASVGDRVTITCQASQDINSYLSWFQQKPGKAPKTLIYRANRLVTGVPSRFSGSGSGTDFTFTISSLQPEDIATYYCLQYDEFPYTFGGGTKLEIKR', '0.56 nM'),
  ('38F8-Hu14 (antibody, human IgG1, kappa, V domains shown, humanized, human IgG1 / kappa) VH: EVQLVESGGGLVQPGGSLRLSCTASGFTFSNYAMSWVRQAPGKGLEWVASISSGGPTYYADSVKGRFTVSRDNSRNTLYLQMNSLRAEDTAVYYCARGYRYDVNWYFDVWGRGTLVTVSS VL: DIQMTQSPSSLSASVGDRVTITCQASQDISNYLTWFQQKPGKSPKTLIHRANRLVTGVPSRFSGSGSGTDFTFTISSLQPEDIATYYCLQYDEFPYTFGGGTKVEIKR', '0.34 nM');
